experimental.target: OATP1A1 (Rattus norvegicus)
Sequence (P46720 whole entry): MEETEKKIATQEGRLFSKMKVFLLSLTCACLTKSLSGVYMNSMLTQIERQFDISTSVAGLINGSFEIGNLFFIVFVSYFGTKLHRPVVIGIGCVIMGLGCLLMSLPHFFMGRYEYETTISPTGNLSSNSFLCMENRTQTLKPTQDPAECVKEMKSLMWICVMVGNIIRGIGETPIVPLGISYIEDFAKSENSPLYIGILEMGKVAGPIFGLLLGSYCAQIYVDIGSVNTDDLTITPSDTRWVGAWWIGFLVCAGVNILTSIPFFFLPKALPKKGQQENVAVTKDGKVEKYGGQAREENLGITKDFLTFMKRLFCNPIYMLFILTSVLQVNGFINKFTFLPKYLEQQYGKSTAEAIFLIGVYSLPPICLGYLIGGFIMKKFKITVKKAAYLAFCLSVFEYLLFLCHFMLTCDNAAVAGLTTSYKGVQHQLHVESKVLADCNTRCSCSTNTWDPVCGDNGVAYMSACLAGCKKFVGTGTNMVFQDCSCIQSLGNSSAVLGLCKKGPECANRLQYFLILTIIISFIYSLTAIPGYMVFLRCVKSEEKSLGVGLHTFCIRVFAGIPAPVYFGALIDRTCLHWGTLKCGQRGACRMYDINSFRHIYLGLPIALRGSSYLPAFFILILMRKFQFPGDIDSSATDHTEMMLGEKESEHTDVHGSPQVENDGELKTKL
assay.overview: Drug uptake by rat hepatic OATP1A1 transporters expressed in CHO cells at 1 uM relative to wild type CHO cells
Type: ADME, cell-based
reported.conditions: CHO cells expressing rat OATP1A1, read-out: FC
Kind request: treat 4 as inclusive, so uptake ratio at 1 µM at 4 or higher is Criterion met, anything lower is Criterion not met.

Task: Say whether O=C([O-])C[C@H](O)C[C@H](O)CCn1c(-c2ccc(F)cc2)nc(C(=O)NCc2cccc(F)c2)c1C1CC1.[Na+] shows uptake ratio at 1 µM of 4 or more.
Output: Criterion met
